- study.system: human orexin-2 receptor (Homo sapiens (Human), UniProt O43614)
- Sequence (O43614 whole entry): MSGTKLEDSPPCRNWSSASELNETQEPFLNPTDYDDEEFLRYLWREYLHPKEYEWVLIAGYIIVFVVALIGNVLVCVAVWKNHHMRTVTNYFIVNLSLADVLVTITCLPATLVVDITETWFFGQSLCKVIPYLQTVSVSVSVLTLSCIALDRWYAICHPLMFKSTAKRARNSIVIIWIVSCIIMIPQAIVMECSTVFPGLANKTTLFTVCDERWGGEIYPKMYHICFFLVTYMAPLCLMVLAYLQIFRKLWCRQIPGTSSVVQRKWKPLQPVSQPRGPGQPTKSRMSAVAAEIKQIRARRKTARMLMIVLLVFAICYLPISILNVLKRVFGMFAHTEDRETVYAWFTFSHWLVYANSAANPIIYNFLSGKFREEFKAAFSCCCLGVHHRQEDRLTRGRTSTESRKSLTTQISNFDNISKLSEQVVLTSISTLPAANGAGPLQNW
- procedure.details: Intracellular calcium measurement (FLIPR), CHO cells expressing human orexin-2 receptor, 3 nM orexin-A
- Assay type: cell-based
- test.context: CHO cells expressing human orexin-2 receptor, FLIPR, 3 nM orexin-A; geometric mean if determined several times; read-out: IC50 OX2
pIC50: −log10 of the molar value.
readout: pIC50

Reference set, count: 4
Cc1ccc(-n2nccn2)c(C(=O)N2CCC[C@H]2c2cc(-c3ccccc3)no2)c1: 6.88
Cc1cc(C(=O)N2CCC[C@H]2c2nc(-c3cccc(Cl)c3C)no2)c(-n2cccn2)cc1C: 8.22
Cc1ccc(-n2nccn2)c(C(=O)N2CCC[C@H]2c2cc(-c3ccccc3)n[nH]2)c1: 6.65
Cc1ccc(-n2nccn2)c(C(=O)N2CCC[C@H]2c2nc(-c3cccnc3OC3CCC3)no2)c1: 7.24

(A) COc1cc(C(=O)N2CCC[C@H]2c2noc(-c3cccc(F)c3OC)n2)c(-n2nccn2)cc1F
(B) COc1ccccc1-c1noc([C@@H]2CCCN2C(=O)c2ccccc2-n2nccn2)n1
[Q] Lowest pIC50? choose A or B Mark your answer with the label of the selected entry.
[A] B
(B: 6.37, A: 8.30)

(1) COc1c(F)cccc1-c1noc([C@@H]2CCCN2C(=O)c2ccc(C)c(C)c2-n2nccn2)n1
(2) COc1cc(C(=O)N2CCC[C@H]2c2nc(-c3ccccc3OC(F)(F)F)no2)c(-n2nccn2)cc1OC
[Q] Could you kindly indicate whether 1 or 2 has the higher pIC50 value? Mark your answer with the label of the selected entry.
[A] 2

(P) O=C(c1cccc(F)c1-n1cccn1)N1CCC[C@H]1c1nc(-c2ccccc2OC(F)(F)F)no1
(Q) COc1cccc(-c2nnc([C@@H]3CCCN3C(=O)c3cc(C)ccc3-n3nccn3)o2)c1
(R) Cc1cc(C)c(-n2nccn2)c(C(=O)N2CCC[C@H]2c2nc(-c3ccccc3OC(F)(F)F)no2)c1
(S) O=C(c1ccccc1-c1ccccc1)N1CCC[C@H]1c1nnc(-c2ccccc2OC(F)(F)F)[nH]1
[Q] Sort (4 compounds) by pIC50: min first. To answer, write out the labels according to the requested order.
[A] Q, P, S, R

Cited source for all entries: patent US9493446B2
